Data provenance: patent US7947293B2

test: Solubility of iclaprim methanesulfonic acid salt in aqueous/organic solutions, HPLC of supernatant
Type: physicochemical
test.settings: aqueous with cosolvent or surfactant or cyclodextrin, thermodynamic from solid; 10% aqueous propylene glycol; room temperature, 24 hours; read-out: Solubility calculated form HPLC measurements
measured.metric: solubility at 24 h (mg/mL)
Answers are plain numbers, in mg/mL.

Value of solubility at 24 h reported for the compound COc1cc(Cc2cnc(N)nc2N)c2c(c1OC)OC(C1CC1)C=C2.CS(=O)(=O)O (racemic) [iclaprim methanesulfonic acid salt] is 27.8

----------
test: Solubility of iclaprim methanesulfonic acid salt in aqueous/organic solutions, HPLC of supernatant
Format: physicochemical
test.settings: 10% propylene glycol in saline 0.9%, aqueous with cosolvent or surfactant or cyclodextrin, thermodynamic from solid; 10% (saline 0.9%) propylene glycol; room temperature, 24 hours; read-out: Solubility calculated form HPLC measurements
Description: A fixed amount of iclaprim mesylate was suspended in the different aqueous/organic solutions. The suspension was stirred at room temperature for 24 hours. The supernatant of the solutions were analyzed by HPLC to determine the amount of iclaprim in the solution.
measured.metric: solubility at 24 h (µg/mL)
Numbers only, in µg/mL.

Value of solubility at 24 h reported for the molecule COc1cc(Cc2cnc(N)nc2N)c2c(c1OC)OC(C1CC1)C=C2.CS(=O)(=O)O (racemic) [iclaprim methanesulfonic acid salt] is 7500

----------
test: Solubility of iclaprim methanesulfonic acid salt in aqueous/organic solutions, HPLC of supernatant
Format: physicochemical
test.settings: saline or isotonic, thermodynamic from solid; Saline 0.9%; room temperature, 24 hours; read-out: Solubility calculated form HPLC measurements
measured.metric: solubility at 24 h (µg/mL)
Numbers only, in µg/mL.

Value of solubility at 24 h reported for the compound COc1cc(Cc2cnc(N)nc2N)c2c(c1OC)OC(C1CC1)C=C2.CS(=O)(=O)O (racemic) [iclaprim methanesulfonic acid salt] is 1200
